Target: Met (phospho-Met, HGF-stimulated PC-3 prostate cancer cells) (Homo sapiens (Human), UniProt P08581)
Sequence (P08581 25-1390): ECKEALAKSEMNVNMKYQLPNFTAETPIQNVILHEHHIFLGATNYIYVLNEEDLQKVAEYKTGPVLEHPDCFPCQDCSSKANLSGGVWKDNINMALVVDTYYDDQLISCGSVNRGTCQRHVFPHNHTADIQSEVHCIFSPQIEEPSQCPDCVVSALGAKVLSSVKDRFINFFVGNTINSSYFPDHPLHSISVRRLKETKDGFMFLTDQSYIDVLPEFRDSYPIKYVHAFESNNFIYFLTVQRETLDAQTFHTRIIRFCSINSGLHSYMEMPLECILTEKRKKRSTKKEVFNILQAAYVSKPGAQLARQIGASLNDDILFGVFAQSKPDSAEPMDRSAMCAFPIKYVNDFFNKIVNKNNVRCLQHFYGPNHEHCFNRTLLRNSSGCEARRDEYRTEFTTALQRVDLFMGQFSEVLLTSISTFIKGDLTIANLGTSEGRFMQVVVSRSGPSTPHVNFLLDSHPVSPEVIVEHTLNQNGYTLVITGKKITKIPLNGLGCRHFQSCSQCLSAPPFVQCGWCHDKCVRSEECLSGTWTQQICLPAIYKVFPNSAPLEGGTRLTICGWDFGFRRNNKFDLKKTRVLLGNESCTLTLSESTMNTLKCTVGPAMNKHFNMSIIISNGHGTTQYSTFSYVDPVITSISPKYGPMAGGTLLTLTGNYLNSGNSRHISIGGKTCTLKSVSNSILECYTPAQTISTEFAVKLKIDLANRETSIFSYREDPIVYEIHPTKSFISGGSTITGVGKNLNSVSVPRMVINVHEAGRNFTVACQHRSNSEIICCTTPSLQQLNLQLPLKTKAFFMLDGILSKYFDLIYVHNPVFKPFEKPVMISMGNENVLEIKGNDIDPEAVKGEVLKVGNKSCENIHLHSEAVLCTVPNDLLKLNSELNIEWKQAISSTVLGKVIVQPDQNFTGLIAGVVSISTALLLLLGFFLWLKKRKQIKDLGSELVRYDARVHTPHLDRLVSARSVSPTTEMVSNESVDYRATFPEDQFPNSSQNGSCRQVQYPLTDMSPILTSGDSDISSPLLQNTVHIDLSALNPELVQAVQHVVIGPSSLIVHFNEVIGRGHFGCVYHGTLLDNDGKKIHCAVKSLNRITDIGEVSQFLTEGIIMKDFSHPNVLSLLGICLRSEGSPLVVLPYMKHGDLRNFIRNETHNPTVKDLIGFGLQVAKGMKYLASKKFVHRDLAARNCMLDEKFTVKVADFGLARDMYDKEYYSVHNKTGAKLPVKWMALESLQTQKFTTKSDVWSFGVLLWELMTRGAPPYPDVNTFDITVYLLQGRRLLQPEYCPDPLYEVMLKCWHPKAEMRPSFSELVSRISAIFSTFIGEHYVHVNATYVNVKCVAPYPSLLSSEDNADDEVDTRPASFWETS
Assay: Met autophosphorylation ELISA in PC-3 cells (Example F)
Type: cell-based
Details: cellular activity; Met autophosphorylation ELISA in PC-3 cells; read-out: c-Met IC50
Procedure: PC-3 prostate cancer cells (ATCC #CRL-1435) were seeded at 4×10^4 cells/well onto 24-well plates (Greiner #662165), in DMEM (Thermo Fisher #11995-040) containing 10% FBS (Thermo Fisher #26140-079), 1% MEM NEAA (Thermo Fisher #11140-050), 1% GlutaMax (Thermo Fisher #35050-061), and 1% Penicillin Streptomycin (Thermo Fisher #15140-122). […] IC50 values were calculated by nonlinear regression analysis using a 4-parameter logistic curve fit in ActivityBase XE (IDBS).
Below, each of the compounds is paired with its reported IC50 value.

Solved cases below.
{"columns": ["Chemical smiles", "Property name", "Result"],
 "data": [
  ["COc1cc2nccc(Oc3ccc(NC(=O)c4cnc(C)c(-c5ccc(F)cc5)c4O)cc3F)c2nc1C", "IC50", "< 100 nM"],
  ["COc1cc2nccc(Oc3cc(C)c(NC(=O)c4cn(C)c(C)c(-c5ccc(F)cc5)c4=O)cc3F)c2nc1OC", "IC50", "< 100 nM"],
  ["COc1cnc2c(Oc3ccc(NC(=O)c4cnc(C)c(-c5ccc(C(C)C)cc5)c4O)cc3F)ccnc2c1", "IC50", "< 100 nM"]
]}

-- ask Tell me IC50 reported for "CCn1cc(C(=O)Nc2ccc(Oc3ccnc4cc(O)cnc34)c(F)c2)c(=O)c(-c2ccc(F)cc2)c1C"
-- reply 100 to 300 nM
